Each recorded value in this set is attributed to ChEMBL document CHEMBL1145095.

- target of assay: Protein kinase C delta type (Mus musculus, UniProt P28867)
- Sequence (P28867 whole entry): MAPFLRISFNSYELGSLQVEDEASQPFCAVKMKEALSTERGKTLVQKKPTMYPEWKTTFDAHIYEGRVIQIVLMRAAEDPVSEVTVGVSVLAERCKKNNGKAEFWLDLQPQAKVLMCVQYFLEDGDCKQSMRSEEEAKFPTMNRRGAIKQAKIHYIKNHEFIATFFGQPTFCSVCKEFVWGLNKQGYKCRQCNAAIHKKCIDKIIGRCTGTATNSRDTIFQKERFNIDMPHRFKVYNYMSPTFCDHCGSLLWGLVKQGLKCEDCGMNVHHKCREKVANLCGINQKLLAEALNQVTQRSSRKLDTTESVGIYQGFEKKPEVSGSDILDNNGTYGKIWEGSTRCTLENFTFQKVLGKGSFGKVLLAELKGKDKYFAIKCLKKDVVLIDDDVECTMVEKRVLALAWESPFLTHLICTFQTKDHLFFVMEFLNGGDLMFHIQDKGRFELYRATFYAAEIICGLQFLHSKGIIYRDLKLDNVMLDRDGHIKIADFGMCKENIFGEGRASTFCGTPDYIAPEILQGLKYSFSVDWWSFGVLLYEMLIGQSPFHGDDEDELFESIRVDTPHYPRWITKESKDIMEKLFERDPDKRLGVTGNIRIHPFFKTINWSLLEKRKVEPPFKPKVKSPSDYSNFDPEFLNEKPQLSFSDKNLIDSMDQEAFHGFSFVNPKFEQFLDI
- protocol notes: Tested for ability to displace […] phorbol 12,13- dibutyrate binding from recombinant murine Protein kinase C delta in presence of [Ca2+]
measured attribute: Ki (nM)
Number in nM, nothing else.

// solved cases for Ki follow
• CC(C)[C@H]1C(=O)N[C@H](CO)Cc2cc(NC(=O)CCCCC(=O)Nc3ccc4c(c3)N(C)[C@@H](C(C)C)C(=O)N[C@H](CO)C4)ccc2N1C = 67.8
• CC(C)[C@H]1C(=O)N[C@H](CO)Cc2cc(NC(=O)CCCCCCCCCCCCCCCCCCCCC(=O)Nc3ccc4c(c3)N(C)[C@@H](C(C)C)C(=O)N[C@H](CO)C4)ccc2N1C = 0.38
• CC(C)[C@H]1C(=O)N[C@H](CO)Cc2cc(NC(=O)CCCCCCCCCCC(=O)Nc3ccc4c(c3)N(C)[C@@H](C(C)C)C(=O)N[C@H](CO)C4)ccc2N1C = 1.31

Input: Report measured Ki; entry is CC(C)[C@H]1C(=O)N[C@H](CO)Cc2cc(NC(=O)CCCCCCCCCCCCCCC(=O)Nc3ccc4c(c3)N(C)[C@@H](C(C)C)C(=O)N[C@H](CO)C4)ccc2N1C
Output: 0.36

Input: Report measured Ki; entry is CC(C)[C@H]1C(=O)N[C@H](CO)Cc2cc(NC(=O)CCCCCCC(=O)Nc3ccc4c(c3)N(C)[C@@H](C(C)C)C(=O)N[C@H](CO)C4)ccc2N1C
Output: 170

Input: Report measured Ki; entry is CC(C)[C@H]1C(=O)N[C@H](CO)Cc2cc(NC(=O)CCCCCCCCC(=O)Nc3ccc4c(c3)N(C)[C@@H](C(C)C)C(=O)N[C@H](CO)C4)ccc2N1C
Output: 5.75
